Reported koff values for a set of binders
target: T1, histidine-tagged human Siglec-7 (NovoProtein) (human, UniProt Q9Y286 19-353); assay: BLI, antibody captured
T1 construct: Bought protein; also called recombinant human Siglec-7; recombinant Siglec-7; not shown: histidine tag
T1 sequence (Q9Y286 19-353 limits assumed): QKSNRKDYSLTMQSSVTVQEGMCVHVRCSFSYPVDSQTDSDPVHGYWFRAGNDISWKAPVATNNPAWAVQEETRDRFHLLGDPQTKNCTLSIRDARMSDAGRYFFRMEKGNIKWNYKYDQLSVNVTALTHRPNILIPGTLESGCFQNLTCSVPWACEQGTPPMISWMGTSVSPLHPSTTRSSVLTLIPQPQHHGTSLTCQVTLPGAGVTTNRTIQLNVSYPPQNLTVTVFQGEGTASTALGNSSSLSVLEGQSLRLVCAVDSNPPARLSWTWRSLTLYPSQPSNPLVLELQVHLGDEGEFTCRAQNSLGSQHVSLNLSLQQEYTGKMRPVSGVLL
Numbers only; they are read as s⁻¹.

>  <binder>
S7AB-H8.36 (antibody, V domains shown) VH: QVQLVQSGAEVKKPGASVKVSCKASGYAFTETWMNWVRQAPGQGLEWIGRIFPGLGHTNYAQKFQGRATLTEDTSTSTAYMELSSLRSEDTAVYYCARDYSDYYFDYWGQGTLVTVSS VL: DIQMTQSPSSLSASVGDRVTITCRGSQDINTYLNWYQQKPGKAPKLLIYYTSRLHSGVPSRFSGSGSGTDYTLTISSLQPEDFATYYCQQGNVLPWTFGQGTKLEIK

>  <uom>
s⁻¹

>  <koff>
9.81e-05

$$$$

get_value(item= S7AB-H8.40 (antibody, V domains shown) VH: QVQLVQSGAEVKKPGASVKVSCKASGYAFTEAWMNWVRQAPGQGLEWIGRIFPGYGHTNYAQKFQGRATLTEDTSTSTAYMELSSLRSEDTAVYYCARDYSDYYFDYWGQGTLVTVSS VL: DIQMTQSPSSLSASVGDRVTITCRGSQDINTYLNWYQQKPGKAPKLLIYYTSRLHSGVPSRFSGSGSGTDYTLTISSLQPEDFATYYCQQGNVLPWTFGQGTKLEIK , readout=koff) returns 6.29e-05
